target or system: SARS-CoV-2 main protease 3CLpro (Severe acute respiratory syndrome coronavirus 2, UniProt P0DTD1)
measurement notes: cell-based
applied conditions: read-out: inhibition to viral protease (reduction in GFP fluorescent activity)
Examples of compounds with documented inhibition at 40 µM follow.

See these solved cases before continuing.
| compound | data value |
| --- | --- |
| O=C1c2ccccc2NC(c2cc([N+](=O)[O-])ccc2O)N1N=Cc1cc([N+](=O)[O-])ccc1O (stereo not drawn) | 20 to 50% |
| COc1ccc(O)c(C=NN2C(=O)c3ccccc3NC2c2cc(OC)ccc2O)c1 (stereo not drawn) | ~80% |
| CC(C)(C)NC(=O)N[C@H](C(=O)N1C[C@H]2[C@@H]([C@H]1C(=O)NC(CC1CCC1)C(=O)C(N)=O)C2(C)C)C(C)(C)C (stereo partly drawn) [Boceprevir, boceprevir, reference compound] | 80% |
| O=C1c2ccccc2NC(c2cc(Cl)ccc2O)N1N=Cc1cc(Cl)ccc1O (stereo not drawn) | 20 to 50% |
| COc1cc(Br)cc(C=NN2C(=O)c3ccccc3NC2c2cc(Br)cc(OC)c2O)c1O (stereo not drawn) | 20 to 50% |

Requested field: inhibition at 40 µM. Item: O=C1c2ccccc2NC(c2cc(Br)ccc2O)N1N=Cc1cc(Br)ccc1O (stereo not drawn)
20 to 50%

Where these numbers come from: paper PMC7814170
